targetSystem: G-protein coupled receptor 35 (Homo sapiens)
Sequence (Q9HC97 whole entry): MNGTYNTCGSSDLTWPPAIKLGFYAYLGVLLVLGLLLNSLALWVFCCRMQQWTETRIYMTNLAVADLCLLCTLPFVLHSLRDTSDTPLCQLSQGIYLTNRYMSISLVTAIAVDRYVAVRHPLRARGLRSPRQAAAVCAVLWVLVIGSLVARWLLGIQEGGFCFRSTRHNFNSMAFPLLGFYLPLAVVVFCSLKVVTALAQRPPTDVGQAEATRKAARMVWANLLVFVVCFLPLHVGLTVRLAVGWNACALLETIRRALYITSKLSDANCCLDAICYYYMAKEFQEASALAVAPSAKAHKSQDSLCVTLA
experiment: Desensitization of GPR35 receptor in human HT-29 cells assessed as inhibition of zaprinast-induced dynamic mass redistribution after 10 mins
pIC50: −log10 of the molar value.
pIC50 listing for selected compounds.
propertyLabel: pIC50

• O=c1oc2c(O)c(O)cc3c(=O)oc4c(O)c(O)cc1c4c23 = 7.00
• CCCCCc1c2c(cc(O)c1C(=O)O)OC(=O)c1c(cc(OC)cc1C(=O)CCCC)O2 = 5.34
• O=c1c(O)c(-c2ccc(O)c(O)c2)oc2cc(O)cc(O)c12 = 4.81
• O=c1cc(-c2ccccc2)oc2cc(O)c(O)c(O)c12 = 4.55
• N#C/C(=C\c1ccc(O)cc1)C(=O)O [alpha-CYANO-4-HYDROXYCINNAMIC ACID] = 4.52
• O=C1C=C2CC3(O)COc4c(ccc(O)c4O)C3=C2C=C1O (configuration not stated) = 4.52
• O=C(O)c1cc(O)c(=O)c2c(O)c(O)ccc2c1 [7-DESHYDROXYPYROGALLIN-4-CARBOXYLIC ACID] = 6.96
• O=c1cc(-c2ccc(O)c(O)c2)oc2cc(O)cc(O)c12 = 4.73
• O=c1c(O)c(-c2cc(O)c(O)c(O)c2)oc2cc(O)cc(O)c12 = 5.67
• CC(=O)NCCc1ccc(O)c(-c2c(O)c(O)c3c(c2O)C(=O)c2c(cc(O)c(C(=O)O)c2C(=O)O)C3=O)c1 = 6.41
• O=c1c(O)c(-c2ccc(O)cc2O)oc2cc(O)cc(O)c12 = 5.80
• CC(C)=CCC1=C(O)C(=O)c2ccccc2C1=O = 5.33
